The measured values listed here are drawn from patent US7160874B2.

Target: integrin α4β1 (Homo sapiens, UniProt P05556+P13612)
Construct: cell strain Jurkat (ATCC TIB-152) of human T cells, known to express integrin α4β1; host or cells: Jurkat (human T cell line)
Sequence (P05556 21-798, one chain of several): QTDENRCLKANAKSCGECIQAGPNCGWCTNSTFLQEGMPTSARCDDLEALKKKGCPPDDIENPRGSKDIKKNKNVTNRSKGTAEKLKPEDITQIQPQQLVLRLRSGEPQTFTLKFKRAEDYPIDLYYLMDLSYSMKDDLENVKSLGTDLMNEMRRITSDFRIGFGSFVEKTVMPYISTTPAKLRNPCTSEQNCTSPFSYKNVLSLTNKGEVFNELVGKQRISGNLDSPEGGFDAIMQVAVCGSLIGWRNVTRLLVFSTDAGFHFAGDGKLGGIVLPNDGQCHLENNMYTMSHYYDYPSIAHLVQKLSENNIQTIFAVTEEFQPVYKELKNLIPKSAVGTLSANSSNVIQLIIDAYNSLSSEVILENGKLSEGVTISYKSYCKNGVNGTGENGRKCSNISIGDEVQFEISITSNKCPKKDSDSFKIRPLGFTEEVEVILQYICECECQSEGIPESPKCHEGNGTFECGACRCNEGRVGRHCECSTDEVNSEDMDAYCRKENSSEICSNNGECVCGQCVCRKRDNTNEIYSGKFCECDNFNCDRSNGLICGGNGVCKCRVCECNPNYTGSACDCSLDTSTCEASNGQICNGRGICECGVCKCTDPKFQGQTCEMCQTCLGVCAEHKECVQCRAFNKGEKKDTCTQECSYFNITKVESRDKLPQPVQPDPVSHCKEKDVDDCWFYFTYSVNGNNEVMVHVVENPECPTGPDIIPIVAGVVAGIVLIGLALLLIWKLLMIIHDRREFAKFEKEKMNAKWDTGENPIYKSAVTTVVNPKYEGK
Assay: VCAM antagonist activity (VCAM-1/α4β1 binding assay)
Type: cell-based
pIC50: −log10 of the molar value.
READOUT KIND: pIC50

The compound listed as CCC(CC)(C(=O)N[C@@H](Cc1ccc(OCc2c(Cl)cccc2Cl)cc1)C(=O)O)C(=O)N1CC(Br)C(Br)C1 (stereo partly shown) [Example 79] has a reported pIC50 of 5.70 to 7.00

====

Measured IC50 of individual entries
Target: integrin α4β7 (Homo sapiens, UniProt P13612+P26010)
Construct: lymphoma cell strain RPMI-8866 of human B cells, known to express integrin α4β7; endogenous in cells; host or cells: RPMI-8866 (human B lymphoma cell line)
Sequence (P13612 34-1032): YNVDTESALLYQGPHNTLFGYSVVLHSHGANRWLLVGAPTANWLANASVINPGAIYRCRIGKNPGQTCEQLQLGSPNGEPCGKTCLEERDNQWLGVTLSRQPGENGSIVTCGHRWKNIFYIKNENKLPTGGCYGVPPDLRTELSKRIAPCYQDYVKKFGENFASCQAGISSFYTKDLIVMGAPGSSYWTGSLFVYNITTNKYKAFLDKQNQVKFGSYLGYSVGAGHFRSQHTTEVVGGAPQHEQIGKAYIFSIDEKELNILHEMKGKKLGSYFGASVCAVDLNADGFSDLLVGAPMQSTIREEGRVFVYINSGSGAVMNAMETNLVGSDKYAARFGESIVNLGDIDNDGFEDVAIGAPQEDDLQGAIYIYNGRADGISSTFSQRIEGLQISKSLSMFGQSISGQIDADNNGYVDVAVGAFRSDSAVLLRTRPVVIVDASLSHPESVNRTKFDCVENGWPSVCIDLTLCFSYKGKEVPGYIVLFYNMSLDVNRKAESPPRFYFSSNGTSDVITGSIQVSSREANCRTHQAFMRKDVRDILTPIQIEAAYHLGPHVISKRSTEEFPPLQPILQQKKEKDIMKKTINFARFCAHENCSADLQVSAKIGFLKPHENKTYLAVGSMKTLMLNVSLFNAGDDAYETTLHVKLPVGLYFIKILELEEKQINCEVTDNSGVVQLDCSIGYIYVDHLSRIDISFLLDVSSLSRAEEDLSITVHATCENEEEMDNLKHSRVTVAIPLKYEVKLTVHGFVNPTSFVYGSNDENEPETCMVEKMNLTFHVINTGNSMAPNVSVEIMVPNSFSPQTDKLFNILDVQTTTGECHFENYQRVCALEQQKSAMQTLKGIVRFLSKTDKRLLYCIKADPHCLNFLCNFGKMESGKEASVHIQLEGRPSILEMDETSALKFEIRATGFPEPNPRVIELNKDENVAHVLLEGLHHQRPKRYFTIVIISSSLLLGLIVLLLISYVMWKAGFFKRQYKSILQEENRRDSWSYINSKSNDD
Sequence (P26010 20-798): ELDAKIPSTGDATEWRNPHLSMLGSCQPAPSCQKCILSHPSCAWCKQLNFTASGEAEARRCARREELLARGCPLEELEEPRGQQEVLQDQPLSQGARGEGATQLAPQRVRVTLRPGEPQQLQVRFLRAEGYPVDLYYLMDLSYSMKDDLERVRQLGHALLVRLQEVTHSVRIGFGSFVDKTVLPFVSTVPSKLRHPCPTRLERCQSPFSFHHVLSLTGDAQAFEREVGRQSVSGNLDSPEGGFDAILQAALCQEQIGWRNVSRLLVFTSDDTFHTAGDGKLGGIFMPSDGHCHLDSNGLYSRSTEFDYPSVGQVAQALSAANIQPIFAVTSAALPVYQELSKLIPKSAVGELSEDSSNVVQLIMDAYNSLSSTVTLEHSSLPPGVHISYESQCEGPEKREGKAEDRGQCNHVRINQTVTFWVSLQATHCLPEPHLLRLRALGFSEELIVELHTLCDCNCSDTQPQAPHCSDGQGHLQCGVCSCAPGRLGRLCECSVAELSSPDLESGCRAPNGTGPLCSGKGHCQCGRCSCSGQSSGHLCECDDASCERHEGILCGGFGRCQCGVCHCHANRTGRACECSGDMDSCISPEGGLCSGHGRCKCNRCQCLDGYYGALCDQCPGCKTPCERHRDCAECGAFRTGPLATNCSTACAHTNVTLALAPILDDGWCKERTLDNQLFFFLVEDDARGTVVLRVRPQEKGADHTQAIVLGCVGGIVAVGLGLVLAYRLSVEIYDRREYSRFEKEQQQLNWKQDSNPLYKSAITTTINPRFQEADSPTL
Experiment: VCAM antagonistic activity (VCAM-1/α4β7 binding assay)
Type: cell-based
Conditions: RPMI-8866 cells binding to VCAM-1; read-out: VCAM antagonistic activity (IC50) α4β7

[[record]]
compound = "CCC(CC)(C(=O)Nc1ccc(O)cc1)C(=O)N[C@@H](Cc1ccc(OCc2c(Cl)cccc2Cl)cc1)C(=O)O"
test_result = "100 to 2000 nM"

[[record]]
compound = "CCC(CC)(C(=O)N[C@@H](Cc1ccc(NC(=O)c2cc(OC)ccc2Br)cc1)C(=O)O)C(=O)N1CCCC1"
test_result = "20 to 100 nM"

[[record]]
compound = "CCC(CC)(C(=O)N[C@@H](Cc1ccc(OCc2c(Cl)cccc2Cl)cc1)C(=O)O)C(=O)N(C)C"
test_result = "< 20 nM"


Could you now consider this next compound?
The compound listed as `CSc1ncc(Cl)c(C(=O)Nc2ccc(C[C@H](NC(=O)C3(C(=O)N(C)C)CC3)C(=O)O)cc2)n1` has a reported IC50 of < 20 nM

====

Molecular target: integrin α4β7 (Homo sapiens, UniProt P13612+P26010)
Construct: lymphoma cell strain RPMI-8866 of human B cells, known to express integrin α4β7; endogenous in cells; host or cells: RPMI-8866 (human B lymphoma cell line)
Test: VCAM antagonistic activity (VCAM-1/α4β7 binding assay)
Format: cell-based
Details: RPMI-8866 cells binding to VCAM-1; read-out: VCAM antagonistic activity (IC50) α4β7
pIC50: −log10 of the molar value.
READOUT KIND: pIC50

Would you please look over these solved cases?
[[record]]
molecule = "CCC(CCOC)(C(=O)NC(Cc1ccc(OCc2c(Cl)cccc2Cl)cc1)C(=O)O)C(=O)N1CCCC1 (mixture of isomers)"
tested_on = "integrin α4β7 (Homo sapiens, UniProt P13612+P26010)"
test_result = "> 7.70"

[[record]]
molecule = "CCCNc1ncc(Cl)c(C(=O)Nc2ccc(C[C@H](NC(=O)C(CC)(CC)C(=O)N3CCCC3)C(=O)O)cc2)n1"
tested_on = "integrin α4β7 (Homo sapiens, UniProt P13612+P26010)"
test_result = "> 7.70"

[[record]]
molecule = "CCC(CC)(C(=O)N[C@@H](Cc1ccc(OCc2c(Cl)cccc2Cl)cc1)C(=O)O)C(=O)N1C[C@@H](O)[C@@H](O)C1"
tested_on = "integrin α4β7 (Homo sapiens, UniProt P13612+P26010)"
test_result = "> 7.70"


The molecule listed as `CCC(CC)(C(=O)N[C@@H](Cc1ccc(OCc2c(Cl)cccc2Cl)cc1)C(=O)O)C(=O)N1CCN(C=O)CC1` has a reported pIC50 of 7.00 to 7.70

The molecule listed as CCC(CC)(C(=O)N[C@@H](Cc1ccc(OCc2c(Cl)cccc2Cl)cc1)C(=O)O)C(=O)N1CC(O)C(Cl)C1 (some centres unmarked) has a reported pIC50 of > 7.70

The molecule listed as `CCN(C)C(=O)C(CC)(CC)C(=O)N[C@@H](Cc1ccc(OCc2c(Cl)cccc2Cl)cc1)C(=O)O` has a reported pIC50 of 7.00 to 7.70

The molecule listed as `CCC(CC)(C(=O)N[C@@H](Cc1ccc(OCc2c(Cl)cccc2Cl)cc1)C(=O)O)C(=O)N1CCCN(C=O)CC1` has a reported pIC50 of 7.00 to 7.70

The molecule listed as CCC(CC)(C(=O)NC(Cc1ccc(OCc2c(Cl)cccc2Cl)cc1)C(=O)O)C(=O)N1CCCC1C(=O)OC (centres unmarked) has a reported pIC50 of > 7.70

====

Target: integrin α4β1 (Homo sapiens, UniProt P05556+P13612)
Construct: cell strain Jurkat (ATCC TIB-152) of human T cells, known to express integrin α4β1; host or cells: Jurkat (human T cell line)
Assay: VCAM antagonist activity (VCAM-1/α4β1 binding assay)
Format: cell-based
Settings: Jurkat cells binding to VCAM-1; read-out: VCAM antagonistic activity (IC50) α4β1
Measured IC50 of individual entries

[[record]]
molecule = "CCC(CC)(C(=O)N[C@@H](Cc1ccc(OCc2c(Cl)cccc2Cl)cc1)C(=O)O)C(=O)N1CCC(=O)C1 [Example 69]"
test_result = "100 to 2000 nM"

[[record]]
molecule = "CCC(CC)(C(=O)NC(Cc1ccc(OCc2c(Cl)cccc2Cl)cc1)C(=O)O)C(=O)N1CC2CC1CN2C(C)=O (centres unmarked) [Example 466]"
test_result = "20 to 100 nM"

[[record]]
molecule = "CN(C)C(=O)C(C)(C)C(=O)N[C@@H](Cc1ccc(OCc2c(Cl)cccc2Cl)cc1)C(=O)O [Example 2]"
test_result = "100 to 2000 nM"

[[record]]
molecule = "CCC(CC)(C(=O)N[C@@H](Cc1ccc(OCc2c(Cl)cccc2Cl)cc1)C(=O)O)C(=O)N1CCC[C@@H](O)C1 [Example 77]"
test_result = "100 to 2000 nM"

[[record]]
molecule = "CCC(CC)(C(=O)N[C@@H](Cc1ccc(OCc2c(Cl)cccc2Cl)cc1)C(=O)O)C(=O)N1CCCN(C=O)CC1 [Example 61]"
test_result = "100 to 2000 nM"

[[record]]
molecule = "COc1cccc(OC)c1-c1ccc(C[C@H](NC(=O)C(C)(C)C(=O)N(C)C)C(=O)O)cc1 [Example 105]"
test_result = "100 to 2000 nM"

[[record]]
molecule = "O=C(O)[C@H](Cc1ccc(OCc2c(Cl)cccc2Cl)cc1)NC(=O)C1(C(=O)N2CCCC2)CCOCC1 [Example 58]"
test_result = "100 to 2000 nM"

[[record]]
molecule = "CCC(CC)(C(=O)N[C@@H](Cc1ccc(OCc2c(Cl)cccc2Cl)cc1)C(=O)O)C(=O)N1CCC[C@H]1CN1CCCC1 [Example 53]"
test_result = "100 to 2000 nM"

[[record]]
molecule = "CN(C)C(=O)C1(C(=O)N[C@@H](Cc2ccc(OCc3c(Cl)cccc3Cl)cc2)C(=O)O)CC1 [Example 21]"
test_result = "2000 to 10000 nM"

[[record]]
molecule = "O=C(O)[C@H](Cc1ccc(OCc2c(Cl)cccc2Cl)cc1)NC(=O)C1(C(=O)N2CCN(c3ccc(O)cc3)CC2)CCCC1 [Example 9]"
test_result = "100 to 2000 nM"


The molecule listed as CCC(CC)(C(=O)NC(Cc1ccc(OCc2c(Cl)cccc2Cl)cc1)C(=O)O)C(=O)N1CCCC1C(=O)OC (centres unmarked) [Example 56] has a reported IC50 of 100 to 2000 nM

The molecule listed as CCC(CC)(C(=O)N[C@@H](Cc1ccc(OCc2c(Cl)cccc2Cl)cc1)C(=O)O)C(=O)N1CC[C@H](N)C1 [Example 66] has a reported IC50 of 100 to 2000 nM

The molecule listed as CCC(CC)(C(=O)N[C@@H](Cc1ccc(OCc2c(Cl)cccc2Cl)cc1)C(=O)O)C(=O)N1CC[C@H](F)C1 [Example 80] has a reported IC50 of 100 to 2000 nM

The molecule listed as CN(C)C(=O)C1(C(=O)N[C@@H](Cc2ccc(NC(=O)c3cc(Br)ccc3Br)cc2)C(=O)O)CC1 [Example 88] has a reported IC50 of 100 to 2000 nM

====

Target: integrin α4β1 (Homo sapiens, UniProt P05556+P13612)
Construct: cell strain Jurkat (ATCC TIB-152) of human T cells, known to express integrin α4β1; host or cells: Jurkat (human T cell line)
Test: VCAM antagonist activity (VCAM-1/α4β1 binding assay)
Format: cell-based
Settings: Jurkat cells binding to VCAM-1; read-out: VCAM antagonistic activity (IC50) α4β1
pIC50: −log10 of the molar value.
Measured pIC50 of individual entries

Would you please look over these solved cases?
[[record]]
compound = "CCC(CC)(C(=O)N[C@@H](Cc1ccc(NC(=O)c2nc([S+](C)[O-])ncc2Cl)cc1)C(=O)O)C(=O)N1CCCC1 (stereo partly shown) [Example 478]"
readout_kind = "pIC50"
test_result = "7.00 to 7.70"

[[record]]
compound = "CCC(CC)(C(=O)N[C@@H](Cc1ccc(OCc2c(Cl)cccc2Cl)cc1)C(=O)O)C(=O)N1CC[C@@H](N(C)C)C1 [Example 44]"
readout_kind = "pIC50"
test_result = "5.70 to 7.00"

[[record]]
compound = "CCC(CC)(C(=O)NC(Cc1ccc(OCc2c(Cl)cccc2Cl)cc1)C(=O)O)C(=O)N1CCCC(CO)C1 (mixture of isomers) [Example 60]"
readout_kind = "pIC50"
test_result = "5.70 to 7.00"

[[record]]
compound = "O=C(O)[C@H](Cc1ccc(OCc2c(Cl)cccc2Cl)cc1)NC(=O)C1(C(=O)N2CC[C@@H](O)C2)CCOCC1 [Example 467]"
readout_kind = "pIC50"
test_result = "5.70 to 7.00"


The compound listed as CCC(CC)(C(=O)N[C@@H](Cc1ccc(OCc2c(Cl)cccc2Cl)cc1)C(=O)O)C(=O)N1CCCNCC1 [Example 42] has a reported pIC50 of 5.70 to 7.00

The compound listed as CN(C)C(=O)C1(C(=O)N[C@@H](Cc2ccc(OCc3c(Cl)cccc3Cl)cc2)C(=O)O)CCCC1 [Example 8] has a reported pIC50 of 5.70 to 7.00

The compound listed as CCC(CC)(C(=O)N[C@@H](Cc1ccc(NC(=O)c2cc(F)c(F)cc2Cl)cc1)C(=O)O)C(=O)N1CCCC1 [Example 95] has a reported pIC50 of 7.00 to 7.70
